The values you see were collected from patent US20210324080A1.

Molecular target: T1, human CTLA-4 (Y201V), full length, on transfected cells (human, UniProt P16410 36-223)
T1 construct: whole, on cells; also called hCTLA-4; HEK293-hCTLA-4 (Y201V)
T1 sequence (looked up): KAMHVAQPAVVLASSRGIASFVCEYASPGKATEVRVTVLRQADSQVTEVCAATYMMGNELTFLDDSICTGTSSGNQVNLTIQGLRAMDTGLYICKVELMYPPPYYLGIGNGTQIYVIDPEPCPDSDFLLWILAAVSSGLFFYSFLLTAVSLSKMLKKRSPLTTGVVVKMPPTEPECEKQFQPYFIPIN
Test: FACS, human CTLA-4 expressing cells
Please go through the items and note down their MFI at 0.064 nM.
Answers are plain numbers.

97A8D1 fully human CTLA-4 antibody (human IgG1, kappa) (antibody, V domains shown, also called mAb49; mAb049) VH: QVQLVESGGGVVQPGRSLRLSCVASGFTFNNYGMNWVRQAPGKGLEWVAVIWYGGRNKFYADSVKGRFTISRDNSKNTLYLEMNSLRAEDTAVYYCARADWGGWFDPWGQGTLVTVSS VL: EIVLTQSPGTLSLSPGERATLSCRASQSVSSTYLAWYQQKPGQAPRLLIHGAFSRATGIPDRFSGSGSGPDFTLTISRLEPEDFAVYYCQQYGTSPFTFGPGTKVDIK; 66

Please give MFI at 0.064 nM, item by item, for the list that follows.
1. 92C8B6 fully human CTLA-4 antibody (human IgG1, kappa) (antibody, V domains shown, also called mAb42; mAb042) VH: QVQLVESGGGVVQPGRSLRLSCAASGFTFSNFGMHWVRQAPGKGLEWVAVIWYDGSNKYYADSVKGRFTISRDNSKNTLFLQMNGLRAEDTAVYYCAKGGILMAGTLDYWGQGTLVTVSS VL: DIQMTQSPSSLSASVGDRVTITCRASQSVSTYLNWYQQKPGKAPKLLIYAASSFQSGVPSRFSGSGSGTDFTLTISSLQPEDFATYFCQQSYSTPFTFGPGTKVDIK
2. 31C12F3 fully human CTLA-4 antibody (human IgG1, kappa) (antibody, V domains shown, also called mAb010) VH: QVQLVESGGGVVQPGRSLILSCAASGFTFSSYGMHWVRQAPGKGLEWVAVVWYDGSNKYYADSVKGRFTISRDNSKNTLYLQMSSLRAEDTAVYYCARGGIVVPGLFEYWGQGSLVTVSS VL: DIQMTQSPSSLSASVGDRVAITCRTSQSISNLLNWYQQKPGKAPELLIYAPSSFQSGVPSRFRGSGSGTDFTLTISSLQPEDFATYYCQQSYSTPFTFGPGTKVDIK

A.
1. 67
2. 96
